Field: concentration of Proto IX in tissue, Intestine. Provide a value for each of the compounds that follow.
System: DBA/2 Ha mice with SMT-F subcutaneous tumors
experiment: Proto IX content of tissues of tumor-bearing mice fed the agent (Example 6)
Assay type: in vivo
details: 2000 ppm in feed

# example entries with known answers
CC(C)Oc1cc(-n2c(=O)n3n(c2=S)CCCC3)c(F)cc1Cl; 19 ug of Proto IX per gram of tis
CCCn1c(=O)ccc2cc(F)c(-n3nc(C)n(C(F)F)c3=O)cc21; 11 ug of Proto IX per gram of tis
C#CCN1C(=O)COc2cc(F)c(-n3nc4c(c3Cl)CCCC4)cc21; 32 ug of Proto IX per gram of tis
Cc1nn(-c2cc(NS(C)(=O)=O)c(Cl)cc2Cl)c(=O)n1C(F)F; 91 ug of Proto IX per gram of tis

Please state, for each entry, its recorded concentration of Proto IX in tissue, Intestine.
1. CC(C)Oc1cc(-n2c(=O)n3n(c2=O)CCCC3)c(F)cc1Cl
2. COC(=O)c1cc(Oc2ccc(C(F)(F)F)cc2Cl)ccc1[N+](=O)[O-]
3. C#CCN1C(=O)COc2cc(F)c(N=c3sc(=S)n4n3CCCC4)cc21
4. CCOC(=O)C(C)Oc1ccc(Oc2cc(-n3nc(C)n(C(F)F)c3=O)c(F)cc2Cl)cc1 (stereo not shown)
5. C#CCN1C(=O)C(F)Oc2cc(F)c(-n3nc(C)n(C(F)F)c3=O)cc21 (stereo not shown)

5 ug of Proto IX per gram of tis
51 ug of Proto IX per gram of tis
5 ug of Proto IX per gram of tis
54 ug of Proto IX per gram of tis
4 ug of Proto IX per gram of tis

Look at this compound and give its reported concentration of Proto IX in tissue, Intestine. CC(C)Oc1cc(-n2nc(C(C)(C)C)oc2=O)c(Cl)cc1Cl
51 ug of Proto IX per gram of tis

----------
Tested on: DBA/2 Ha mice with SMT-F subcutaneous tumors
experiment: Proto IX content of tissues of tumor-bearing mice fed the agent (Example 6)
Type: in vivo
details: 2000 ppm in feed Days 2-10, sacrificed Day 10 (6j Day 7)
value.type: Proto IX Mean Cps per gram, Liver
Mention the unit after the number when you answer.

# example entries with known answers
Cc1nn(-c2cc(NS(C)(=O)=O)c(Cl)cc2Cl)c(=O)n1C(F)F; 2739 Cps per gram × 10^3
CC(C)Oc1cc(-n2c(=O)n3n(c2=S)CCCC3)c(F)cc1Cl; 876 Cps per gram × 10^3
C#CCN1C(=O)C(F)Oc2cc(F)c(-n3nc(C)n(C(F)F)c3=O)cc21 (stereo not shown); 803 Cps per gram × 10^3
CC(C)Oc1cc(-n2nc(C(C)(C)C)oc2=O)c(Cl)cc1Cl; 1581 Cps per gram × 10^3
CC(C)Oc1cc(-n2c(=O)n3n(c2=O)CCCC3)c(F)cc1Cl; 914 Cps per gram × 10^3
CCCn1c(=O)ccc2cc(F)c(-n3nc(C)n(C(F)F)c3=O)cc21; 1170 Cps per gram × 10^3
C#CCN1C(=O)COc2cc(F)c(N=c3sc(=S)n4n3CCCC4)cc21; 538 Cps per gram × 10^3
C#CCN1C(=O)COc2cc(F)c(-n3nc4c(c3Cl)CCCC4)cc21; 1510 Cps per gram × 10^3
CCOC(=O)C(C)Oc1ccc(Oc2cc(-n3nc(C)n(C(F)F)c3=O)c(F)cc2Cl)cc1 (stereo not shown); 4291 Cps per gram × 10^3

Continue with the next compound.
Form field: Proto IX Mean Cps per gram, Liver recorded for COC(=O)c1cc(Oc2ccc(C(F)(F)F)cc2Cl)ccc1[N+](=O)[O-] with DBA/2 Ha mice with SMT-F subcutaneous tumors (enter value)
1261 Cps per gram × 10^3
